Just for reference, paper PMC3651043 is where these values come from.

- tested.system: pKSI (ketosteroid isomerase from Pseudomonas putida) (Pseudomonas putida, UniProt P07445, D40N)
- Sequence (P07445 whole entry D40N): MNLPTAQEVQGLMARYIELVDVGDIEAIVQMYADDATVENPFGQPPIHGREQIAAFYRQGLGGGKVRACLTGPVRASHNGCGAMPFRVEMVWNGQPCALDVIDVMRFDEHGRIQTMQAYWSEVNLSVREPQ
- experiment.description: biochemical
property.measured: Kd (nM)
Only the number, expressed in nM, is required.

Fill blank: measured Kd of the compound "C[C@]12CCC(=O)C=C1CC[C@@H]1[C@@H]2CC[C@]2(C)C(=O)CC[C@@H]12" is ____. 1330
